Hello, the source for this data is ChEMBL document CHEMBL1781952, in case you need it.

# target.or.test.system: Protein kinase C alpha type (Homo sapiens, UniProt P17252)
property.measured: pIC50
Give bare numbers, as −log10 of the molar value.

Supply pIC50 measured with Protein kinase C alpha type (Homo sapiens, UniProt P17252) for CC(C)=CCC/C(C)=C/CC/C(C)=C/CC/C(=C\C[C@H]1OC(=O)C=C1CO)CO [HIPPOLIDE E] . 4.39

====

# target.or.test.system: Tyrosine-protein phosphatase non-receptor type 1 (Homo sapiens)
# Sequence (P18031 whole entry, the tested form may be a part): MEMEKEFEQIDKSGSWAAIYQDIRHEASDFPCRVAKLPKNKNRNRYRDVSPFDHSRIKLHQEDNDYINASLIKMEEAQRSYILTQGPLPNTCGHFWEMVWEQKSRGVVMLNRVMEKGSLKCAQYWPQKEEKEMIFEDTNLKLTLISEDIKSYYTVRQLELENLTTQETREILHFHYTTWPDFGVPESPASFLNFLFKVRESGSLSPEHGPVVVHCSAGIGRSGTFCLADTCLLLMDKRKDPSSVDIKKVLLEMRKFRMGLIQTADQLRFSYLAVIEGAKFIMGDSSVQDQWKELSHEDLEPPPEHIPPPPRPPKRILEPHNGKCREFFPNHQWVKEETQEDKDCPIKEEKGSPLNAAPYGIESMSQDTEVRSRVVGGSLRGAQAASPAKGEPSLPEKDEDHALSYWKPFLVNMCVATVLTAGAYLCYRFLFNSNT
# test.name: Inhibition of recombinant PTP1B catalytic domain using pNPP as substrate assessed as pNP release
So I've got a bunch of compounds here, and I need their pIC50 values.
Give bare numbers, as −log10 of the molar value.

CC(C)=CCC/C(C)=C/CC/C(C)=C/CCC1=CC[C@H]([C@@H]2CC(=O)NC2=O)O[C@@H]1O [HIPPOLIDE A] :: 4.62

// next item, pIC50 requested
Let me know recorded pIC50 for CO[C@H]1O[C@@H]([C@@H]2CC(=O)NC2=O)CC=C1CC/C=C(\C)CC/C=C(\C)CCC=C(C)C [HIPPOLIDE B] , thanks. 4.40
